System: SKOV3 ovarian cancer cells
Assay: Proliferation assay
Type: cell-based, human
Conditions: Homo sapiens, SK-OV-3, 96 h, read-out: IC50 (μM) SKOV3
measurement-kind: IC50

q: # query: IC50 of entry Cn1cc(C2=C(c3ccc(Cl)cc3Cl)C(=O)NC2=O)c2ccccc21 [SB216763, reference compound]
a: > 50 µM

====

Tested on: OVCA432 ovarian cancer cells
Test: Proliferation assay
Assay type: cell-based, human
Details: read-out: IC50 (μM) OVCA432; OVCA432 cells, 4 days (96 hours), concentration required to kill 50% of the cells
measurement-kind: IC50 (µM)
Numbers only, in µM.

INSERT INTO assay_data (smiles_structure, readout_unit, measurement) VALUES
  ('COc1cccc2c(C3=C(c4cn(C)c5cc(Cl)c(F)cc45)C(=O)NC3=O)coc12', 'µM', 10.7);

q: # IC50 lookup, item `Cn1cc(C2=C(c3coc4ccc(F)cc34)C(=O)NC2=O)c2cc3c(cc21)OCO3`
a: 11.2
